Measured on: Inadl_6, Q8NI35
Sequence (Q8NI35 1058-1167): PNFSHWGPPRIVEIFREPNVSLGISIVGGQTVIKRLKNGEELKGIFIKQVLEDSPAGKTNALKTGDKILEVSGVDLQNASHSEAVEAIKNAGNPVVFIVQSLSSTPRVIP
Measurement notes: holdup assay
Design: key: below the threshold = too weak to quantify, mostly under pKd 3.1 to 4
Condition parameters: plain residues with an end cap or a label only (N-terminal biotin on a linker: ado-ado)
Property name: pKd

Worked examples follow.
MLSKQSESAI [FLVCR1, Q9Y5Y0] : below the threshold
VRNLPESEEL [MYOZ3, Q8TDC0] : below the threshold
RRRESYSTTV [EVI5, O60447] : below the threshold
YLEPVLSSEL [ATP2A2, P16615;P16615-3] : below the threshold
EKKTLIGIKL [GOT1L1, Q8NHS2] : below the threshold

Kindly consider the entry below.
Asked: Query (binder): PRAEAEDSFL [PDGFRB, P09619] ; field requested: pKd
Given back: 3.81
